Protocol: Lipophilicity, log P of the compound by UV-Vis spectrophotometric method based saturation shake flask assay
Format: physicochemical
Test Context: octanol/water
Measurement Type: logP

Cc1c(C(=O)NN)sc(C(=O)NN)c1C : -1.41
CCCCCCCCCCn1c(CNNC(=O)c2sc(C(=O)NNCc3nc4ccccc4n3CCCCCCCCCC)c(C)c2C)nc2ccccc21 : ND(Insoluble)
CCCCCCCCCCCCCCCCCCn1c(CNNC(=O)c2sc(C(=O)NNCc3nc4ccccc4n3CCCCCCCCCCCCCCCCCC)c(C)c2C)nc2ccccc21 : ND(Insoluble)
CCCCCCCCCCCCn1c(CNNC(=O)c2sc(C(=O)NNCc3nc4ccccc4n3CCCCCCCCCCCC)c(C)c2C)nc2ccccc21 : ND(Insoluble)
